assay: fu,cell by equilibrium dialysis of cell homogenate, MDCK; assay type: in vitro ADME; conditions: dog, dialysis 4 h 37°C, 10 million cells/mL homogenate, read-out: fu,MDCK Geomean
MEASURED_METRIC: fraction unbound at 4 h, 0.5 μM

INSERT INTO results (compound, recorded_measurement) VALUES
  ('Cn1c(=O)c2c(ncn2C)n(C)c1=O', 0.0593),
  ('CCN(CC)CCCC(C)Nc1ccnc2cc(Cl)ccc12 (centres unmarked)', 0.176),
  ('COc1ccc([C@@H]2Sc3ccccc3N(CCN(C)C)C(=O)[C@@H]2OC(C)=O)cc1', 0.069),
  ('COCCc1ccc(OCC(O)CNC(C)C)cc1 (centres unmarked)', 0.202),
  ('Cc1cccc(C)c1OCC(=O)N[C@@H](Cc1ccccc1)[C@@H](O)C[C@H](Cc1ccccc1)NC(=O)[C@H](C(C)C)N1CCCNC1=O', 0.0119),
  ('Cc1ccccc1N1C(=O)c2cc(S(N)(=O)=O)c(Cl)cc2NC1C (centres unmarked)', 0.37),
  ('CCOc1nc2cccc(C(=O)O)c2n1Cc1ccc(-c2ccccc2-c2nnn[nH]2)cc1', 0.0968),
  ('COC(=O)CCc1ccc(OCC(O)CNC(C)C)cc1 (centres unmarked)', 0.35);
